Data credit: PubChem BioAssay (NCATS)

Test: S16 Schwann cell PMP22 intronic element beta-lactamase assay (AID 624044); further: nearly all actives have a fitted effect of over 15% in size
Details: S16 rat Schwann cells, PMP22 element beta-lactamase FRET, 24 h; series mostly up to 38.3 µM
Procedure: Description: Charcot-Marie-Tooth-Association [CMTA] National Center for Advancing Translational Sciences [NCATS] […] S16 Schwann cell PMP22 intronic element beta-lactamase assay The beta-Lac-expressing S16 cells were seeded in black clear-bottom 1536 well plates at between 500-750 cells/6uL in DMEM medium containing 10% FBS, w/o phenol red. […] The concentration-effect curves were then classified based on curve quality (r2), response magnitude and degree of measured activity.
Results filed as inconclusive are left out. Active and inactive are the calls of the source. The call rests on the fitted dose curve.
Choose the fitting class; nothing outside active, inactive is accepted.

MOLECULE	LABEL
[O]=[Cr](=[O])([OH])[O][Cr](=[O])(=[O])[OH]	inactive
c1csc(C2(N3CCCCC3)CCCCC2)c1	inactive
O=c1c2ccccc2[se]n1-c1ccccc1	inactive
CCC1C(C)=NN=C(c2ccc(OC)c(OC)c2)c2cc(OC)c(OC)cc21 (stereo unspecified)	inactive
O=c1[nH]c(=O)n(Cl)c(=O)n1Cl	inactive
[O]=[Cd]	inactive
CCC(N)Cc1c[nH]c2ccccc12 (stereo unspecified)	inactive
c1ccc(C2(N3CCCC3)CCCCC2)cc1	inactive
CC(C)(C)c1cc(O)ccc1O	inactive
CNC(=O)Oc1ccccc1C(=O)Nc1ccccc1	inactive

Tell me the assay call for CCCC(C)(COC(N)=O)COC(=O)NC1CC1 (stereo unspecified) please.
inactive

Lookup O=S(=O)(O)c1cc(O)ccc1O
inactive

Also need OC(c1ccccc1)(c1ccccc1)C1CN2CCC1CC2 (stereo unspecified) , thanks.
inactive

Same lookup for O=C1CC[C@@]2(O)C3Cc4ccc(O)c5c4C2(CCN3CC2CC2)[C@H]1O5 (stereo partly specified) , please.
inactive

Now try [N-]=[N+]=CC(=O)OCC(N)C(=O)O (stereo unspecified) .
inactive

ClC(Cl)(Cl)Cl ?
inactive

Try this molecule too: FC(F)OC(F)(F)C(F)Cl (stereo unspecified)
inactive

Field entry: CCNC(C)Cc1cccc(C(F)(F)F)c1 (stereo unspecified)
inactive

One more molecule: C=CCN(C1=NCCN1)c1c(Cl)cccc1Cl
inactive

Also O=C1CN(O)C(c2ccccc2)=c2cc(Cl)ccc2=N1 ?
inactive

Lookup CN1c2ccccc2C(NCCCCCCC(=O)O)c2ccc(Cl)cc2S1(=O)=O (stereo unspecified)
inactive

Another molecule to look at: CCC(C)(S(=O)(=O)CC)S(=O)(=O)CC
inactive

Also, O=C1C2CC=CCC2C(=O)N1SC(Cl)(Cl)Cl (stereo unspecified) please.
active

# repeat for C[C@]12CCC(=O)C[C@@H]1CC[C@@H]1[C@@H]2CC[C@]2(C)[C@@H](O)CC[C@@H]12
inactive

Request: C=CCN=C=S
inactive

C[C@@H](Cc1ccccc1)NCCC(c1ccccc1)c1ccccc1 , same question.
inactive

---

experiment: Cell Viability - LYMP2-023 (AID 975); details: LYMP2-023 lymphoblastoid cell viability; series mostly up to 92.2 µM;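 further: cells exposed to compound for 24 hours at 37 °C; nearly all actives have a fitted effect of over 55% in size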
Records with an inconclusive call do not appear. Active and inactive are the calls of the source. Calls come from the whole dose curve; as a rule, active = well fitted cell-killing curve with a large enough effect; inconclusive = small, poorly fitted or top-dose-only effect; inactive = flat fitted curve, though single readings scatter.
Select the correct class. Options are active, inactive and nothing else.

Please review the following examples before continuing.
CC(C)(C)c1cc(O)ccc1O inactive
Oc1cc(Cl)c(Cl)cc1Cl inactive

I would be grateful if you could indicate the recorded call for [O]=[Cd] .
inactive

C[C@H]1CCC[C@H](O)CCCCCc2cc(O)cc(O)c2C(=O)O1 ?
inactive

Next: Clc1ccccc1Cl
inactive

Follow-up entry: O=C(O)C(Cl)(Cl)Cl
inactive

Same question, [Cl-].[Cl-].[Hg+2] this time
active
